- System under test: Genome polyprotein (Hepatitis C virus genotype 1a (isolate H77), UniProt P27958)
- Sequence (P27958 1027-1657 limits assumed): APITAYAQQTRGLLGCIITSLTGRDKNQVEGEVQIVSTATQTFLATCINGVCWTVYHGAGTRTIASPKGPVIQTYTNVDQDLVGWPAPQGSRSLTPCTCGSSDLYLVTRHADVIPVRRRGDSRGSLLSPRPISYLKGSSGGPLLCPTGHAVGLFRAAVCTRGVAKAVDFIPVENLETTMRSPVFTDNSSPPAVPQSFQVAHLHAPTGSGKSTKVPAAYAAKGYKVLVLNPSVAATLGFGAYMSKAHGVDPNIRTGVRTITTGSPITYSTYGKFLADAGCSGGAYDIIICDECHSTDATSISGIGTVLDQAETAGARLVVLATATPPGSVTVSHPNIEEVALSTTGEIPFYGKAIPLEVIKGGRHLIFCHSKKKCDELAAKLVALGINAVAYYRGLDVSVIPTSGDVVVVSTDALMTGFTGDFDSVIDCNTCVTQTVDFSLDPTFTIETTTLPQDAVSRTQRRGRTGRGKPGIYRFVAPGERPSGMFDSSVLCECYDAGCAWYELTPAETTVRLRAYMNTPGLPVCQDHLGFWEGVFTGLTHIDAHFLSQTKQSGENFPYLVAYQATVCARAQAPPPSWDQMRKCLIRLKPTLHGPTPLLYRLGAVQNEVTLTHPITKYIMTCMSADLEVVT
- Protocol summary: Continuous Spectrophotometric Assay
- Condition summary: pH 6.5; 30 °C
pKi: −log10 of the molar value. Numbered stars: 1 amine (or outer) side, 2 acyl side, 3 side chain; on linkers, the order of the positions; unused ones are H or OH. Square brackets hold non-standard residues; d marks the D form. Peptide text beside a SMILES is read from it. * marks the point of attachment. Isobutyloxycarbonyl = CC(C)COC(=O)*; X1 = CCCC(N[*:1])C(=O)C(=O)[*:2]
Outcome measure: pKi

CCCC(NC(=O)[C@@H]1CCCN1C(=O)[C@@H](NC(=O)OCC(C)C)C(C)C)C(=O)C(=O)NCC(=O)N[C@@H](CC(=O)O)C(=O)O (some centres not stated) (Isobutyloxycarbonyl-VP[X1]GD-OH) : < 4.00
CCCC(NC(=O)[C@@H]1CCCN1C(=O)[C@@H](NC(=O)OCC(C)C)C(C)C)C(=O)C(=O)NCC(=O)N[C@@H](CCC(=O)O)C(=O)O (some centres not stated) (Isobutyloxycarbonyl-VP[X1]GE-OH) : < 4.00
